- target_desc: Lactobacillus delbrueckii ssp. Bulgaricus R-2-hydroxy acid dehydrogenase (LB2HADH), wild type (H206), SEQ ID NO:1 (Lactobacillus delbrueckii, UniProt Q48534)
- Construct: no tag mentioned
- Sequence (Q48534 1-333): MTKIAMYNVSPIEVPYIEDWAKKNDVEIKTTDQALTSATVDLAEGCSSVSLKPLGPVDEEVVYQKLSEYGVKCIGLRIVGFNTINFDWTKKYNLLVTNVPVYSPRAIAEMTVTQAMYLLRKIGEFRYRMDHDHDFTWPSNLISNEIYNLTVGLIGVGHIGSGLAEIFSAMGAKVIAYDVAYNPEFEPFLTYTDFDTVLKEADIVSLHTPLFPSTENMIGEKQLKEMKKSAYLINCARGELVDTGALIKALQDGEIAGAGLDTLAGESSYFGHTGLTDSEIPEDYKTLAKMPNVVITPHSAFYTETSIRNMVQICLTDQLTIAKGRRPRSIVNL
- assay_protocol: Steady-state kinetics of 2-keto acid reduction, followed by NADH oxidation
- Assay type: biochemical
- condition_context: pH 5.5; stopped flow; read-out: Ki KIC
observed_property: pKi
Quick note: pKi means taking -log10 of the concentration in moles per liter.

Prompt: # query: pKi of entry CC(C)CC(=O)C(=O)O [ketoisocaproate, 4-methyl-2-oxo-pentanoic acid]
Response: 3.62

---

- target_desc: Lactobacillus delbrueckii ssp. Bulgaricus R-2-hydroxy acid dehydrogenase (LB2HADH), wild type (H206), SEQ ID NO:1 (Lactobacillus delbrueckii, UniProt Q48534)
- Construct: no tag mentioned
- assay_protocol: Steady-state kinetics of 2-keto acid reduction, followed by NADH oxidation
- Format: biochemical
- condition_context: substrate inhibition; wild type; read-out: Ki (substrate)
observed_property: pKi
Quick note: pKi means taking -log10 of the concentration in moles per liter.

Prompt: # query: pKi of entry O=C(O)C(=O)CCC1CCCC1 [cyclopentylmethyl, 4-cyclopentyl-2-keto-butanoate]
Response: 2.70

---

- target_desc: Lactobacillus delbrueckii ssp. Bulgaricus R-2-hydroxy acid dehydrogenase (LB2HADH) variant H206Q (Q206 mutant, Histidine 206 replaced by glutamine) (Lactobacillus delbrueckii, UniProt Q48534, H207Q)
- Construct: no tag mentioned
- Sequence (Q48534 1-333 H207Q): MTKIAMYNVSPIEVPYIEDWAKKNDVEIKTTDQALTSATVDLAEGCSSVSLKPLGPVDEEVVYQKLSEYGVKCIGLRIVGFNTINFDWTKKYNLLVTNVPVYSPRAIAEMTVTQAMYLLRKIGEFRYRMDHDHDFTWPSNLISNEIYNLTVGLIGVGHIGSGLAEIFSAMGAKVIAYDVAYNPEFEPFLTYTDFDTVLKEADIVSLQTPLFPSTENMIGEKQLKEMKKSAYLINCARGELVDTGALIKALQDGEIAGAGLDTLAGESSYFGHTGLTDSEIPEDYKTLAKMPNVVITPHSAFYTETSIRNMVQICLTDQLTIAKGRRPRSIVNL
- assay_protocol: Steady-state kinetics of 2-keto acid reduction, followed by NADH oxidation
- Format: biochemical
- condition_context: read-out: Ki KIC; pH 6.5; stopped flow
observed_property: pKi
Quick note: pKi means taking -log10 of the concentration in moles per liter.

Prompt: # query: pKi of entry CC(C)CC(=O)C(=O)O [ketoisocaproate, 4-methyl-2-oxo-pentanoic acid]
Response: 2.12

---

- target_desc: Lactobacillus delbrueckii ssp. Bulgaricus R-2-hydroxy acid dehydrogenase (LB2HADH) variant H206Q (Q206 mutant, Histidine 206 replaced by glutamine) (Lactobacillus delbrueckii, UniProt Q48534, H207Q)
- Construct: no tag mentioned
- assay_protocol: Steady-state kinetics of 2-keto acid reduction, followed by NADH oxidation
- Format: biochemical
- condition_context: read-out: Ki KIC; pH 6.0; stopped flow
observed_property: Ki (mM)
Reply numerically in mM, unit not repeated.

Prompt: # query: Ki of entry CC(C)CC(=O)C(=O)O [ketoisocaproate, 4-methyl-2-oxo-pentanoic acid]
Response: 5.8
